# Assay target: T1, Human membrane IL-6R on cells (human, UniProt P08887 20-468)
# T1 sequence (looked up): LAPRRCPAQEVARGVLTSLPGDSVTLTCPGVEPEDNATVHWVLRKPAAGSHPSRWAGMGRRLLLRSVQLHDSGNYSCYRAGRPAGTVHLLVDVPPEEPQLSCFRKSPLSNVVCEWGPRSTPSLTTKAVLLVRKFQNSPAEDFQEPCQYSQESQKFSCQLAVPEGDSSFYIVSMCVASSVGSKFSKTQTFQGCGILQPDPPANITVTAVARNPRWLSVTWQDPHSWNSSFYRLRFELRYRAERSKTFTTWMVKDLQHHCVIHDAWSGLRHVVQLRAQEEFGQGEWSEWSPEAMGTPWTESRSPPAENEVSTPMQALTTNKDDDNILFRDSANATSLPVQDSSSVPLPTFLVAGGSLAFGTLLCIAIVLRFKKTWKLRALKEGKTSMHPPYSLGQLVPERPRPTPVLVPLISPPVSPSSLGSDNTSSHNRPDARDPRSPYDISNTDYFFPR
# Assay info: cell-based or functional assay
The following binders are shown together with reported IC50 (nM) XG-1 values.

{"Binder": "IL6R06 (VHH, also called PMP32E2; not shown: C-terminal c-myc and (His)6 tags) VHH: EVQLVESGGGLVQAGGSLRLSCAASGNIFDDNTMGWTWNRQPPGKQRELVAIIATDGSTNYADSVKGRFTISRDNAKNTVYLQMNSLKPEDTAVYYCNLFSLRLGRDYWGQGTQVTVSS", "IC50 (nM) XG-1": "42.1 nM"}
{"Binder": "IL6R12 (VHH, also called PMP35F4; not shown: C-terminal c-myc and (His)6 tags) VHH: EVQLVESGGGLVQAGGSLRLSCAASGRTFSSYDMGWYRQAPGKEREFVAIITWNSSTYYADSVKGRFTISRDNAKNTVYLQMNSLKPEDTAIYYCNAQYGLGYAEDYWGQGTQVTVSS", "IC50 (nM) XG-1": "2.8 nM"}
{"Binder": "IL6R10 (VHH, also called PMP35C10; not shown: C-terminal c-myc and (His)6 tags) VHH: EVQLVESGGGLVQAGGSLRLSCAASGRTFSSYDMGWYRQAPGKEREFVAVIHWSSGSTYYADPVKGRFTISRDNAKNTVYLQMNSLKPEDTAIYYCNAFLPGPEGFHDYWGQGTQVTVSS", "IC50 (nM) XG-1": "2.5 nM"}
{"Binder": "IL6R05 (VHH, also called PMP32E10; not shown: C-terminal c-myc and (His)6 tags) VHH: EVQLVESGGGLVQPGGSLRLSCAASGFTFGSYDMSWVRQAPGKGPEWVSAINSGGGSTYYADSVKGRFTISRDNAKNTLYLQMNSLKPEDTAVYYCATDWRYSDYDLPLPPPGDYWGQGTQVTVSS", "IC50 (nM) XG-1": "7.3 nM"}

The origin of these recorded values is patent US20120077731A1.
